# EXPERIMENT: physchem
# APPLIED_CONDITIONS: buffer, pH 7
PROPERTY: half-life (h)
State just the number; it will be interpreted in h.

[Q] Which half-life value belongs to O=C1[O][Pt]([NH]C2CC2)([NH]C2CC2)[O]C(=O)C1(F)CCOC1O[C@H](CO)[C@@H](O)[C@H](O)[C@H]1O (stereo partly shown) ?
[A] 62

[Q] Please report the recorded half-life for [NH2][Pt]1([NH2])[O]C(=O)C(F)(COC2O[C@H](CO)[C@@H](O)[C@H](O)[C@H]2O)C(=O)[O]1 (stereo partly shown) .
[A] 73

[Q] Form field: reported half-life of [NH2][Pt]1([NH2])[O]C(=O)C(F)(CCOC2O[C@H](CO)[C@@H](O)[C@H](O)[C@H]2O)C(=O)[O]1 (stereo partly shown)
[A] 52

[Q] What value of measured half-life is listed for O=C1[O][Pt]2([NH][C@@H]3CCCC[C@H]3[NH]2)[O]C(=O)C1(F)COC1O[C@H](CO)[C@@H](O)[C@H](O)[C@H]1O (stereo partly shown) ?
[A] 89
